Assay: Trained sensory panel rating of sweetness and bitterness intensity, Example 2 (measured values, S/B)
Assay type: in vivo
Details: 400 ppm, citric acid buffer; scale 1-15
measured attribute: Measured Sweetness
Give a plain numeric answer without units written out.

Task: # Measured Sweetness lookup, item C=C1C[C@@]23CC[C@H]4[C@@](C)(CCC[C@@]4(C)C(=O)O[C@@H]4O[C@H](CO)[C@@H](O)[C@H](O[C@@H]5O[C@H](CO)[C@@H](O)[C@H](O)[C@H]5O)[C@H]4O[C@@H]4O[C@H](CO)[C@@H](O)[C@H](O)[C@H]4O)[C@@H]2CC[C@]1(O[C@@H]1O[C@H](CO)[C@@H](O)[C@H](O[C@@H]2O[C@H](CO)[C@@H](O)[C@H](O)[C@H]2O)[C@H]1O[C@@H]1O[C@H](CO)[C@@H](O)[C@H](O)[C@H]1O)C3 [Reb M, Rebaudioside M]
Result: 7.76
